Sequence of the target: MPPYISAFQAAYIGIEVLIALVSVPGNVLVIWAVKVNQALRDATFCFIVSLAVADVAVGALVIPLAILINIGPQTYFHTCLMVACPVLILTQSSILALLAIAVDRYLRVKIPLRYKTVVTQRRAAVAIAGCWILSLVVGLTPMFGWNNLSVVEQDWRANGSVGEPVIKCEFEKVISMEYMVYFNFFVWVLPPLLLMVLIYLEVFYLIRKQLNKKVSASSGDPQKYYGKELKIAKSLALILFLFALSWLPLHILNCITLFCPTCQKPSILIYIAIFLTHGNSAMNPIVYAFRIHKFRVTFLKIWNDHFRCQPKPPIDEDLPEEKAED
Reported property: Ki

Q: Give its Ki value. Item: CCCCN1CCC(COC(=O)c2cc(Cl)c(N)c3c2OCCO3)CC1 [CAS_121881]
A: > 10 µM
